B1: CPEB3 Ribozyme (parent)
chain: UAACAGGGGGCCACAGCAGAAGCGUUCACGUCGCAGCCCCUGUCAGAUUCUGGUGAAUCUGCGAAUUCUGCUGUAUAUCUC

variants of: B1; test: self-cleavage, relative activity (ratio to wild type); higher = more cleavage; in vitro, sequencing
Tick satisfied if self-cleavage is 0.3 or greater. Tick not satisfied if self-cleavage is less than 0.3.

>>> print(df.to_string())
    variantkey  assignedclass
 0   A28U U67G  not satisfied
 1   G42U A47G  not satisfied
 2   C11G C32A      satisfied
 3   A15U A75G      satisfied
 4   C37A U67C  not satisfied
 5   U31A C71G  not satisfied
 6   U43C A56G      satisfied
 7   U25A A64G      satisfied
 8   U51G U72C      satisfied
 9   C38U U49G      satisfied
10   A47G G53C      satisfied
11   G33A U51A  not satisfied
12   G19U A45G  not satisfied
13   G36C U51A  not satisfied
14   G19U U74C      satisfied
15   U43C U80C      satisfied
16   C39A U69G  not satisfied
17   A28G C50U      satisfied
18   G63A U66C      satisfied
19   C34U A65G      satisfied
20   C29G U67C  not satisfied
21    U1G U78C      satisfied
